- Tgt: HPK1 (SLP76 phosphorylation at Ser376 in Jurkat and EL-4 cells) (Homo sapiens)
- Format: cell-based
- Conditions: αCD3/αCD28 Dynabeads stimulated cells, pSLP76 (Ser376) detection; read-out: HPK1 pSLP76 IC50
- Method: Cellular Assay—Phospho-SLP-76 (Ser376). Inhibition of HPK1 enzymatic activity in cells was determined by detection of SLP76 phosphorylation at Ser376 residue in lysate from Jurkat (human) and EL-4 (mouse) cells. Jurkat and EL-4 cells express both HPK1 and SLP76 naturally. […] For detection, plates were read on the Envision and percent inhibition and IC50 were determined by Smart fit in Genedata Analyzer. […]
Entries and their IC50 values follow.

// worked examples, IC50 included
[[record]]
compound = "Cc1c(N2CCc3cnc(Nc4ccc([C@H]5CCCS5(=O)=O)cc4)cc3C2)cnc2c1NCCO2 (single isomer, unassigned)"
reported_measurement = "< 500 nM"

[[record]]
compound = "Cc1cc(Nc2ncc3c(n2)CN(c2cnc4c(c2C)NCCO4)CC3)ccc1NC(=O)CN1CCCC1"
reported_measurement = "< 500 nM"

[[record]]
compound = "Cc1c(N2CCc3cnc(Nc4ccc(CC(=O)N5CCC5)cc4)nc3C2)cnc2c1NCCO2"
reported_measurement = "< 500 nM"

[[record]]
compound = "Cc1c(N2CCc3cnc(Nc4ccc(Cn5cncn5)cc4)nc3C2)cnc2c1NCCO2"
reported_measurement = "< 500 nM"

[[record]]
compound = "Cc1c(N2CCc3cnc(Nc4ccc(CS(C)(=O)=O)c(F)c4)nc3C2)cnc2c1NCCO2"
reported_measurement = "< 500 nM"


Prompt: Give IC50 for Cc1cc(Nc2cc3c(cn2)CCN(c2cnc4c(c2C)NCCO4)C3)ccc1NC(=O)CN1CCC1
Completion: < 500 nM

----------
Entries and their pIC50 values follow.
- Tgt: HPK1 (SLP76 phosphorylation at Ser376 in Jurkat and EL-4 cells) (Homo sapiens, UniProt Q92918)
- Sequence (Q92918 whole entry, looked up): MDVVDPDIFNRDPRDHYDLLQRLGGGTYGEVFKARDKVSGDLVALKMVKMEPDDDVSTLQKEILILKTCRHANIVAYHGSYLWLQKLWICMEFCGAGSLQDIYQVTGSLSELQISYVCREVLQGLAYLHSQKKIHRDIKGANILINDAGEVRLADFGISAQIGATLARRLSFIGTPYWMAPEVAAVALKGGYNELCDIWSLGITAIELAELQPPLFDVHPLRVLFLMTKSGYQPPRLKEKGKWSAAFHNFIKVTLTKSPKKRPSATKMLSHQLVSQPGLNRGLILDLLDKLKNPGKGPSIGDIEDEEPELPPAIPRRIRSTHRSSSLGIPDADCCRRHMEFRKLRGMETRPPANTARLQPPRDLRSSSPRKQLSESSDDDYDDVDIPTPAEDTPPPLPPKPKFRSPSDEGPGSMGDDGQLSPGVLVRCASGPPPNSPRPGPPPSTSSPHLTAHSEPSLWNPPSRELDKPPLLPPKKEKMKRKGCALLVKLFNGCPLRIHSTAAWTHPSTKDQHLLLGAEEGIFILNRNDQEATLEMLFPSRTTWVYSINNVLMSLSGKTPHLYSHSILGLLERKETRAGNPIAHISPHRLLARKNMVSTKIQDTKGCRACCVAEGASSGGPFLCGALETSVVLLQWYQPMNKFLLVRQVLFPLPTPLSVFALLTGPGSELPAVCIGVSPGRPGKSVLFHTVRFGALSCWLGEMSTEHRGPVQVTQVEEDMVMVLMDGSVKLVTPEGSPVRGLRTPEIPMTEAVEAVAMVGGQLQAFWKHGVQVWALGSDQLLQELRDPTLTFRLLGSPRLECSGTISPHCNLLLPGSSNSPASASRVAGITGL
- Format: cell-based
- Conditions: αCD3/αCD28 Dynabeads stimulated cells, pSLP76 (Ser376) detection; read-out: HPK1 pSLP76 IC50
- Method: Cellular Assay—Phospho-SLP-76 (Ser376). Inhibition of HPK1 enzymatic activity in cells was determined by detection of SLP76 phosphorylation at Ser376 residue in lysate from Jurkat (human) and EL-4 (mouse) cells. Jurkat and EL-4 cells express both HPK1 and SLP76 naturally. […] For detection, plates were read on the Envision and percent inhibition and IC50 were determined by Smart fit in Genedata Analyzer. […]
pIC50: −log10 of the molar value.

// worked examples, pIC50 included
[[record]]
molecular_string = "Cc1c(N2CCc3cnc(Nc4ccc(Cn5ccnn5)cc4)nc3C2)cnc2c1NCCO2"
reported_measurement = "> 6.30"

[[record]]
molecular_string = "COCCNC(=O)c1ccc(Nc2ncc3c(n2)CN(c2cnc4c(c2C)NCCO4)CC3)cc1"
reported_measurement = "> 6.30"

[[record]]
molecular_string = "Cc1c(N2CCc3cnc(Nc4ccc(Cn5cncn5)cc4)cc3C2)cnc2c1NCCO2"
reported_measurement = "> 6.30"


Now for a further compound.
Prompt: Give pIC50 for Cc1c(N2CCc3cnc(Nc4cccc(CN5CCN(C)CC5)c4)nc3C2)cnc2c1NCCO2
Completion: 6.00 to 6.30

----------
- Tgt: HPK1 (SLP76 phosphorylation at Ser376 in Jurkat and EL-4 cells) (Homo sapiens, UniProt Q92918)
- Format: cell-based
- Conditions: αCD3/αCD28 Dynabeads stimulated cells, pSLP76 (Ser376) detection; read-out: HPK1 pSLP76 IC50
pIC50: −log10 of the molar value.
Measurement Kind: pIC50

[[record]]
molecular_string = "Cc1cc(Nc2ncc3c(n2)CN(c2cnc4c(c2C)NCCO4)CC3)ccc1C(=O)NC1CN(C)C1"
measurement_kind = "pIC50"
reported_measurement = "6.00 to 6.30"


Prompt: Give pIC50 for COCCOCCS(=O)(=O)c1ccc(Nc2ncc3c(n2)CN(c2cnc4c(c2C)NCCO4)CC3)cc1
Completion: > 6.30

Prompt: Give pIC50 for CNC(=O)c1ccc(Nc2ncc3c(n2)CN(c2cnc4c(c2C)NCCO4)CC3)cc1F
Completion: > 6.30

Prompt: Give pIC50 for Cc1c(N2CCc3cnc(Nc4ccc(C5(O)CCN(C)CC5)cc4)cc3C2)cnc2c1NCCO2
Completion: 6.00 to 6.30

Prompt: Give pIC50 for Cc1cc(Nc2ncc3c(n2)CN(c2cnc4c(c2C)NCCO4)CC3)ccc1C(=O)N1CC(N(C)C)C1
Completion: < 6.00

Prompt: Give pIC50 for Cc1c(N2CCc3cnc(Nc4ccc(CC(=O)N5CC(F)C5)cc4)nc3C2)cnc2c1NCCO2
Completion: > 6.30

Prompt: Give pIC50 for CS(=O)(=O)Cc1ccc(Nc2ncc3c(n2)CN(c2cnc4c(c2C2CC2)NCCO4)CC3)cc1
Completion: > 6.30

Prompt: Give pIC50 for Cc1c(N2CCc3cnc(Nc4ccc(CS(C)(=O)=O)cc4)nc3C2)cnc2c1NCCO2
Completion: > 6.30
